# target-or-test-system: ALPK1 (Homo sapiens, UniProt Q96QP1)
# Construct: endogenous in cells; host or cells: 293T cells
# Sequence (Q96QP1 whole entry): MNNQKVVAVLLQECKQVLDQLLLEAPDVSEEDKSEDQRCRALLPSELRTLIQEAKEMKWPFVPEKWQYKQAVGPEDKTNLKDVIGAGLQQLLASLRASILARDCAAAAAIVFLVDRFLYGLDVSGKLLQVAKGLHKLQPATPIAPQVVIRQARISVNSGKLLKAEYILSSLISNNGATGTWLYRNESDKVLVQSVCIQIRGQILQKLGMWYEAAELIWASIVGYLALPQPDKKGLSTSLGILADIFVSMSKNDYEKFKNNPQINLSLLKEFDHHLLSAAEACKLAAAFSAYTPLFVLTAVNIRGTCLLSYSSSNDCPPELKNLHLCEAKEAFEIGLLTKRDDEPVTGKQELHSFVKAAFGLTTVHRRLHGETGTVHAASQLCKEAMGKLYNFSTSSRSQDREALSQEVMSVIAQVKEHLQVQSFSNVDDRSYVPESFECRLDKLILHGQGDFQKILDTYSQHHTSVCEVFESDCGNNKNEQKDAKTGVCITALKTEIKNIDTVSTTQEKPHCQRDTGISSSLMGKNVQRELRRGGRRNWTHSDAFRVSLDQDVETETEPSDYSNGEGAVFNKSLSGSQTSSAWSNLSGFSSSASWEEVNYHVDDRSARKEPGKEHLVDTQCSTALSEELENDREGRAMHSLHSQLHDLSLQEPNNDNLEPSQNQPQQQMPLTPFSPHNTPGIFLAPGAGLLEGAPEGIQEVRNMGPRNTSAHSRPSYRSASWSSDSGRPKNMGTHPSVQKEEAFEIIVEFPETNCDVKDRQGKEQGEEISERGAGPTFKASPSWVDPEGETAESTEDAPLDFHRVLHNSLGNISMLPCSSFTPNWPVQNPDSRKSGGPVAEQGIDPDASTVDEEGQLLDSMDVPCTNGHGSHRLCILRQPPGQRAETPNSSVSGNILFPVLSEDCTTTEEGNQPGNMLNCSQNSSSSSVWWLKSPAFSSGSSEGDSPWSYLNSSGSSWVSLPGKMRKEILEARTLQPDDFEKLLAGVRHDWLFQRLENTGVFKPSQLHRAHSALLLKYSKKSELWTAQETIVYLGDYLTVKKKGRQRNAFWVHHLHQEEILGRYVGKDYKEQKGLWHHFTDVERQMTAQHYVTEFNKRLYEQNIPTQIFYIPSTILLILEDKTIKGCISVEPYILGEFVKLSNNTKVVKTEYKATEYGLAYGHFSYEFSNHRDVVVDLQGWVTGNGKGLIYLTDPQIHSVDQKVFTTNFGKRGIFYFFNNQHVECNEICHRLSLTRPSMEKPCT
# assay-details: NF-κB luciferase reporter assay in 293T cells (cellular assay)
# Format: cell-based
experimental-readout: EC50 (nM)
Give bare numbers, in nM.

- molecule: "C=C[C@@]1(OC)[C@H](O)[C@@H](COP(=O)(S)OP(=O)(O)OC2OC([C@H](COC(C)=O)OC(C)=O)C(OC(C)=O)C(OC(C)=O)C2OC(C)=O)O[C@H]1n1ccc(=O)[nH]c1=O (stereo partly shown) [Example 45C]"
  target-or-test-system: "ALPK1 (Homo sapiens, UniProt Q96QP1)"
  measure-unit: "nM"
  EC50: 9.58
- molecule: "CS[C@@H]1[C@H](O)[C@@H](COP(=O)(S)OP(=O)(O)OC2OC([C@@H](O)CO)C(O)C(O)C2O)O[C@H]1n1ccc(=O)[nH]c1=O (stereo partly shown) [Example 262D]"
  target-or-test-system: "ALPK1 (Homo sapiens, UniProt Q96QP1)"
  measure-unit: "nM"
  EC50: 101
- molecule: "C=C[C@@]1(O)[C@H](O)[C@@H](COP(=O)(S)OP(=O)(O)OC2OC([C@H](COC(=O)CC)OC(C)=O)C(OC(C)=O)C(OC(C)=O)C2OC(C)=O)O[C@H]1n1cnc2c(N)ncnc21 (stereo partly shown) [Example 31H]"
  target-or-test-system: "ALPK1 (Homo sapiens, UniProt Q96QP1)"
  measure-unit: "nM"
  EC50: 0.15

Query molecule follows.
Sample C=C=C[C@@]1(O)[C@H](O)[C@@H](COP(=O)(S)OP(=O)(O)OC2OC([C@H](COC(C)=O)OC(C)=O)C(OC(C)=O)C(OC(C)=O)C2OC(C)=O)O[C@H]1n1ccc(=O)[nH]c1=O (stereo partly shown) [Example 98C] ; EC50 observed: 2310

====

# assay-details: PK / tissue distribution in Sprague-Dawley rats
# Type: in vivo
# assay-context: female, rat, PO, 5 mg/kg, plasma, read-out: Cmax in Plasma
experimental-readout: Cmax

Each molecule below has a recorded value; state its Cmax.
1. C=C[C@@]1(O)[C@H](O)[C@@H](COP(=O)(S)OP(=O)(O)OC2OC([C@H](COC(C)=O)OC(C)=O)C(OC(C)=O)C(OC(C)=O)C2OC(C)=O)O[C@H]1n1ccc(=O)[nH]c1=O (stereo partly drawn) [Example 43C]
2. C=C[C@@]1(F)[C@H](O)[C@@H](COP(=O)(S)OP(=O)(O)OC2OC([C@H](COC(C)=O)OC(C)=O)C(OC(C)=O)C(OC(C)=O)C2OC(C)=O)O[C@H]1n1cnc2c(N)ncnc21 (stereo partly drawn) [Example 41C]
3. C=C[C@@]1(O)[C@H](O)[C@@H](COP(=O)(S)OP(=O)(O)OC2OC([C@H](COC(C)=O)OC(C)=O)C(OC(C)=O)C(OC(C)=O)C2OC(C)=O)O[C@H]1n1cnc2c(N)ncnc21 (stereo partly drawn) [Example 31C]

A:
["< 1 ng/mL", "< 1 ng/mL", "< 1 ng/mL"]

====

Field: EC50. Provide a value for each of the molecules that follow.
# target-or-test-system: ALPK1 (Homo sapiens)
# Construct: endogenous in cells; host or cells: 293T cells
# assay-details: NF-κB luciferase reporter assay in 293T cells (cellular assay)
# Assay type: cell-based
Numbers only, in nM.

Consider the worked cases shown below.
- molecule: "C=C[C@@]1(O)[C@H](O)[C@@H](COP(=O)(OP(=O)(O)OC2OC([C@H](COC(C)=O)OC(C)=O)C(OC(C)=O)C(OC(C)=O)C2OC(C)=O)SCOC(=O)OC(C)C)O[C@H]1n1cnc2c(N)ncnc21 (stereo partly shown) [Example 31L]"
  target-or-test-system: "ALPK1 (Homo sapiens)"
  experimental-readout: "EC50"
  measure-unit: "nM"
  data-value: 13.8
- molecule: "C=C[C@@]1(O)[C@H](O)[C@@H](COP(=O)(S)OP(=O)(O)OC2OC([C@H](COC(C)=O)OC(C)=O)C(OC(C)=O)C(OC(C)=O)C2OC(C)=O)O[C@H]1c1cnn2c(N)ncnc12 (stereo partly shown) [Example 128C]"
  target-or-test-system: "ALPK1 (Homo sapiens)"
  experimental-readout: "EC50"
  measure-unit: "nM"
  data-value: 3.62
- molecule: "C=C[C@@]1(O)[C@H](O)[C@@H](COP(=O)(OP(=O)(O)OC2OC([C@H](COC(C)=O)OC(C)=O)C(OC(C)=O)C(OC(C)=O)C2OC(C)=O)SCOC(=O)C(C)C)O[C@H]1n1cnc2c(N)ncnc21 (stereo partly shown) [Example 31K]"
  target-or-test-system: "ALPK1 (Homo sapiens)"
  experimental-readout: "EC50"
  measure-unit: "nM"
  data-value: 57.6

Query molecule follows.
Sample C#C[C@@]1(F)[C@H](O)[C@@H](COP(=O)(S)OP(=O)(O)OC2OC([C@@H](O)CO)C(O)C(O)C2O)O[C@H]1n1cnc2c(N)ncnc21 (stereo partly shown) [Example 21D] ; EC50 observed: 4.08

====

# target-or-test-system: ALPK1 (Homo sapiens)
# Construct: endogenous in cells; host or cells: 293T cells
# assay-details: NF-κB luciferase reporter assay in 293T cells (cellular assay)
# Type: cell-based
Field: pEC50. Provide a value for each of the molecules that follow.
Numbers only, as −log10 of the molar value.

- molecule: "CC(=O)OC[C@H](OC(C)=O)C1OC(OP(=O)(O)O[P@](=O)(S)OC[C@H]2O[C@@H](n3cnc4c(N)ncnc43)[C@H](N(C)C)[C@@H]2O)C(OC(C)=O)C(OC(C)=O)C1OC(C)=O (single isomer, unassigned) [Example 35H]"
  pEC50: 7.78
- molecule: "C=C[C@@]1(O)[C@H](O)[C@@H](COP(=O)(S)OP(=O)(O)OC2OC([C@H](COC(C)=O)OC(C)=O)C(OC(C)=O)C(OC(C)=O)C2OC(C)=O)O[C@H]1n1cnc2c(N)ncnc21 (stereo partly drawn) [Example 31C]"
  pEC50: 7.77

Query molecule follows.
Sample C=C[C@@]1(F)[C@H](O)[C@@H](COP(=O)(S)OP(=O)(O)OC2OC([C@H](COC(C)=O)OC(C)=O)C(OC(C)=O)C(OC(C)=O)C2OC(C)=O)O[C@H]1n1cnc2c(N)ncnc21 (stereo partly drawn) [Example 41C] ; pEC50 observed: 8.08

====

Field: pEC50. Provide a value for each of the compounds that follow.
# target-or-test-system: ALPK1 (Homo sapiens, UniProt Q96QP1)
# Construct: endogenous in cells; host or cells: 293T cells
# assay-details: Enzymatic assay of ALPK1 activation
# Type: biochemical
One number for each entry, as −log10 of the molar value.

- compound: "C=C[C@@]1(F)[C@H](O)[C@@H](COP(=O)(S)OP(=O)(O)OC2OC([C@@H](O)CO)C(O)C(O)C2O)O[C@H]1n1cnc2c(N)ncnc21 (single isomer, unassigned) [Example 41D]"
  target-or-test-system: "ALPK1 (Homo sapiens, UniProt Q96QP1)"
  pEC50: 8.39
- compound: "C=C[C@@]1(F)[C@H](O)[C@@H](COP(=O)(S)OP(=O)(O)OC2OC([C@@H](O)CO)C(O)C(O)C2O)O[C@H]1n1ccc(=O)[nH]c1=O (stereo partly drawn) [Example 42D]"
  target-or-test-system: "ALPK1 (Homo sapiens, UniProt Q96QP1)"
  pEC50: 7.96

Query compound follows.
Sample C=C[C@@]1(O)[C@H](O)[C@@H](COP(=O)(S)OP(=O)(O)OC2OC([C@@H](O)CO)C(O)C(O)C2O)O[C@H]1n1cnc2c(N)ncnc21 (stereo partly drawn) [Example 31D] ; pEC50 observed: 7.62

====

# target-or-test-system: ALPK1 (Homo sapiens)
# Construct: endogenous in cells; host or cells: 293T cells
# assay-details: NF-κB luciferase reporter assay in 293T cells (cellular assay)
# Format: cell-based
# Method: The compounds disclosed herein activate NF-κB through ALPK1-TIFA axis as determined by the NF-κB luciferase reporter and TIFA phosphorylation. […] NF-κB luciferase activity was determined using the dual luciferase assay kit (Promega) according to the manufacturer's instructions. […] The EC50 of the compounds disclosed herein were determined by the NF-κB luciferase reporter assay using 293T cells described supra. […]
experimental-readout: pEC50
One number for each entry, as −log10 of the molar value.

Each compound below has a recorded value; state its pEC50.
1. C=C[C@@]1(O)[C@H](O)[C@@H](CO[P@](=O)(S)OP(=O)(O)OC2OC([C@@H](O)CO)C(O)C(O)C2O)O[C@H]1n1cnc2c(N)ncnc21 (single isomer, unassigned) [Example 31Q]
2. C=C[C@@]1(O)[C@H](O)[C@@H](CO[P@@](=O)(S)OP(=O)(O)OC2OC([C@@H](O)CO)C(O)C(O)C2O)O[C@H]1n1cnc2c(N)ncnc21 (single isomer, unassigned) [Example 31R]

A:
8.15
7.87

Sample C#C[C@@]1(F)[C@H](O)[C@@H](COP(=O)(S)OP(=O)(O)OC2OC([C@H](COC(C)=O)OC(C)=O)C(OC(C)=O)C(OC(C)=O)C2OC(C)=O)O[C@H]1n1cnc2c(N)ncnc21 (stereo partly drawn) [Example 21C] ; pEC50 observed: 7.82
